assay summary: yeast growth modulation, basal conditions, primary screen, YJM789 clinical isolate, OD600, 24 h (AID 1089);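 also: growth of clinical yeast isolate S. cerevisiae YJM 789 seeded 1000 cells per well; test concentration not given here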
reported conditions: S. cerevisiae YJM789 growth, higher = more signal, called active from +8 up or from −8 down
experimental readout: z-score
Please give only the number in your answer, with no unit.

Problem: Give the measured z-score of C/C=C/CN(C(=O)C#Cc1ccccc1)[C@H](CO[Si](C)(C)C(C)(C)C)c1ccccc1 .
Result: -0.185

* * *

assay summary: A549 cell viability effects, profiling panel, calcein-AM fluorescence, 48 h, basal (AID 1162); also: test concentration not given here
reported conditions: higher = more signal
experimental readout: z-score
Please give only the number in your answer, with no unit.

compound	z-score
[N-]=[N+]=NCc1ccccc1C[C@@]1(C(=O)O)N=C(c2ccc(OCCCO)cc2)O[C@@H]1c1ccccc1CN=[N+]=[N-]	0.737

The record that follows has no z-score shown yet.
Problem: Give the measured z-score of COCCOC(=O)N1C(=O)[C@@]2(c3ccccc31)[C@H](C(N)=O)[C@H]1C(=O)O[C@H](c3ccccc3)[C@H](c3ccccc3)N1[C@@H]2c1ccc(OCCO)cc1 .
Result: -0.429

* * *

assay summary: basal MM1S mitochondrial membrane potential changes, profiling panel, cell-based, JC-1 fluorescence, 24 h, 100 nL compound (AID 1170); also: test concentration not given here
reported conditions: higher = more signal
Listed here are compounds together with their documented z-score.
Please give only the number in your answer, with no unit.

compound	z-score
[N-]=[N+]=NCc1ccccc1[C@H]1OC(c2ccc(OCCCO)cc2)=N[C@@]1(Cc1ccccc1)C(=O)N1CCOCC1	0.35
C=CCOC(=O)[C@H]1[C@@H]2C(=O)O[C@@H](c3ccccc3)[C@@H](c3ccccc3)N2[C@@H](c2ccc(OCCOC(=O)[C@@H]3C[C@@H]4C(=O)N[C@@H](Cc5ccccc5)C(=O)N4[C@@H]3c3ccc(O)cc3)cc2)[C@]12C(=O)Nc1ccccc12	-1.02
COCCOC(=O)N1C(=O)[C@@]2(c3cc(C#Cc4ccc(OC)cc4)ccc31)[C@H](C(=O)Nc1nc3ccccc3s1)[C@H]1C(=O)O[C@H](c3ccccc3)[C@H](c3ccccc3)N1[C@@H]2c1ccccc1OCCO	-0.881
COCCOC(=O)N1C(=O)[C@@]2(c3cc(C#Cc4ccc(OC)cc4)ccc31)[C@H](c1ccc(OCCO)cc1)N1[C@H](c3ccccc3)[C@H](c3ccccc3)OC(=O)[C@H]1[C@@H]2C(=O)N1CCCCCCC1	-1
COCCn1c(C(=O)N2CCCC2)cc2c1C[C@H]1CN(C(=O)c3ccccc3)[C@@](Cc3ccccc3)(C(=O)OC)[C@@H]21	-0.688

The record that follows has no z-score shown yet.
Problem: Give the measured z-score of CCCCCCCCCCC(O)C1C=CC2C(=O)N(C)C(=O)C2N1N1CCCCC1 (stereo unspecified) .
Result: -0.517

* * *

Test system: Human papillomavirus type 1a protein E7 (residues 44-93)
assay summary: HPV1a E7 fragment binders on microarrays, primary screen, biochemical, small-molecule microarray, residues 44-93, 635 nm fluorescence (AID 1108);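 also: E7 fragment applied at 1 µg/mL in TBST for 1 h at 4 C; score combines spot fluorescence with its signal to noise ratio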
reported conditions: small-molecule microarray binding, fluorescence 635 nm; higher = more signal
experimental readout: composite z-score
Please give only the number in your answer, with no unit.

Please review the following examples before continuing.
compound	experimental readout	measured result
C=C(/C(=C/C[C@H](OC(=O)c1ccncc1)c1ccccc1OCCO)c1cc(C(=O)OC)ccc1OC)C(C)C	composite z-score	1.03
Cc1ccc(S(=O)(=O)N2[C@@H](c3ccccc3)C(C(=O)O)=CC[C@H]2c2ccc(C#N)cc2)cc1	composite z-score	1.24
NCCCC[C@@H]1NC(=O)[C@H]2C[C@@H](C(=O)O)[C@@H](c3cccc(OCCO)c3)N2C1=O	composite z-score	1.4

The record that follows has no composite z-score shown yet.
Problem: Give the measured composite z-score of CCN(CC)c1ccc(N2CC=CC34O[C@@H]5C=CCOC(=O)[C@@H]5[C@H]3C(=O)N(CCO)[C@@H]4C2=O)cc1 (some centres undefined) .
Result: -0.73
